Measured residence time, listed per entry.
assayTarget: WDR5 protein (Homo sapiens (Human), UniProt P61964)
assayText: Surface Plasmon Resonance (SPR) assay
Assay type: binding
runConditions: SPR, τ=1/koff; read-out: Residence Time (t, min)
# number only, unit min dropped from output

{"columns": ["entrySmiles", "readoutUnits", "measurement"],
 "data": [
  ["C[C@@H]1CN(c2ccc(-c3nc(N4CCOCC4)ncc3F)cc2NC(=O)c2c[nH]c(=O)cc2C(F)(F)F)C[C@H](C)N1C", "min", 11.6]
]}

Form field residence time, entry CN1CCN(c2ccc(-c3ccc(OCC4CC4)nc3F)cc2NC(=O)c2c[nH]c(=O)cc2C(F)(F)F)CC1 : 5.25

Form field residence time, entry CN1CCN(c2ccc(-c3cc(CN(C)[C@H]4CCOC4)ccc3F)cc2NC(=O)c2c[nH]c(=O)cc2C(F)(F)F)CC1 : 3.81

Form field residence time, entry CN1CCN(c2ccc(-c3cc(CNC4CCOCC4)ccc3F)cc2NC(=O)c2c[nH]c(=O)cc2C(F)(F)F)CC1 : 4.38

Form field residence time, entry C[C@@H]1CN(c2ccc(-c3cc(C(=O)N(C)C4CCCCC4)ccc3F)cc2NC(=O)c2c[nH]c(=O)cc2C(F)(F)F)C[C@H](C)N1C : 34

Form field residence time, entry CN1CCN(c2ccc(-c3cccc(CN4CCOCC4)c3F)cc2NC(=O)c2c[nH]c(=O)cc2C(F)(F)F)CC1 : 0.56

Form field residence time, entry CN1CCN(c2ccc(-c3cc(CN4CCOCC4)ccc3F)cc2NC(=O)c2n[nH]c(=O)cc2C(F)(F)F)CC1 : 0.41

Origin of values: patent US11174250B2
